The origin of these recorded values is patent US10815219B2.

tested on: INS-1 cells; assay: INS-1 cell survival after Tm treatment (CellTiter-Glo, intracellular ATP); assay type: cell-based, rat; conditions: % rescue from Tm (0.1 μg/mL)-induced reduction of cell viability, 72 h; Tm alone 0%, DMSO 100%; Table 2
Output Y for records whose Maximum activity is lower than 50%, N for records at or above 50%.

• OCC1CCCCN1c1nc(NCCc2ccccc2Br)c2ccccc2n1 (stereo not drawn) [Compound 6m] = Y
• OCC1CCCCN1c1nc(NCCc2cccc(F)c2)c2ccccc2n1 (stereo not drawn) [Compound 6g] = N
• OCC1CCCCN1c1nc(NCCc2ccc(F)cc2)c2ccccc2n1 (stereo not drawn) [Compound 6b] = Y
• Cc1ccc(CCNc2nc(N3CCCCC3CO)nc3ccccc23)cc1 (stereo not drawn) [Compound 6e] = Y
• COc1cccc(CCNc2nc(N3CCCCC3CO)nc3ccccc23)c1 (stereo not drawn) [Compound 6j] = N
• OCC1CCCCN1c1nc(NCCc2ccccc2F)c2ccccc2n1 (stereo not drawn) [Compound 6k] = N
• OCC1CCCCN1c1nc(NCCc2ccc(Br)cc2)c2ccccc2n1 (stereo not drawn) [Compound 6d] = N
• OCC1CCCCN1c1nc(NCCc2ccccc2)c2ccccc2n1 (stereo not drawn) [Compound 6a] = N
